This collection of values is drawn from the supplement of paper PMC10126150.

Test system: ATP;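 also: ATP exposure 15 min at 22 °C before imaging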
METHOD_DESCRIPTION: switch fluorescence ratio, 500 uM ATP over buffer (Cy3 cluster intensity, sum of 5 cycles each) (fold (ratio)); higher = stronger signal-on switching upon ATP binding; sequences stand for … in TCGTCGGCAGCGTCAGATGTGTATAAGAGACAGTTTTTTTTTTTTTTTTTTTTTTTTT…TC
EXPERIMENTAL_CONDITIONS: aptamer strand: ATP DNA aptamer (quencher-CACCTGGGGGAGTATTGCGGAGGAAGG + anchor), 100 nM annealed; ATP concentration: 500 uM
Give measured switch fluorescence ratio for each item. Keep answers brief.
Lab note: record the figure alone, no unit after it.

# query: switch fluorescence ratio of entry CACAATTGGG
1.01

Try the sequence CGAGGGGTTT
0.984

Try the sequence TAGGGGGGGA
1.01

Try the sequence AAATGTTTCA
0.996

Try the sequence GATTTTGTTA
1.01

Try the sequence GCTCGGGGGC
1.01

Try the sequence TCTTTTTGGT
0.992

Try the sequence CGTCGAGGGA
1.1

Try the sequence TTTGGGCCTT
1.02

Try the sequence ATGAGGGGCA
0.98

Try the sequence GGGGCAGCTG
1.06

Try the sequence TTTTCCGCTT
1.55

Try the sequence CGCTTAATCT
1.07

Try the sequence GAAAGGGTTG
0.968

Try the sequence CTGGAGGGAC
1.06

Try the sequence TCGTTTTGCC
0.956

Try the sequence AGCGGTTCGC
0.993

Try the sequence ACATGATTGG
0.97

Try the sequence CCTCAATGGT
1.39

Try the sequence TTTATTTGTC
0.992

Try the sequence GGGGGTGGAG
1

Try the sequence GGCTCCGGTT
1.19

Try the sequence GAGGGGAGTA
1

Try the sequence CAGATAGGGG
1.12

Try the sequence GGCTCTGATG
1.01

Try the sequence AAAGTTACTG
1.03

Try the sequence TACGCCGGAA
1.33

Try the sequence TTATGGGGGT
1.01

Try the sequence GTATTTTGGC
1.02
